Give measured Kp at 3 h for each item. Keep answers brief.
PROTOCOL DETAILS: Blood Brain Barrier (BBB) data, brain/plasma ratio (Table B)
Format: in vivo
CONDITION SET: brain and plasma; calculated at a 3 hr time point; Table B column heads <0.1, 0.1-1, >1; cells list compound numbers

1) COCCONC(=O)c1c[nH]c2cc(Cl)c(-c3ccc(N(C)C)nc3OC)cc12
0.1 to 1
2) COc1nc(N(C)C)ccc1-c1cc2c(C(=O)NOCC3CC3)c[nH]c2cc1Cl
0.1 to 1
3) CS(=O)(=O)NC(=O)c1c[nH]c2cc(Cl)c(-c3ccc(-c4ccccc4)cc3)cc12
< 0.1

Lab note: each molecule below needs its Kp at 3 h filled in.
1. COc1nc(N(C)C)ccc1-c1cc2c(C(=O)NO)c[nH]c2cc1Cl
2. COCCONC(=O)c1c[nH]c2cc(Cl)c(-c3ccc(C4(O)CCC4)cc3)cc12
3. OCC1(c2ccc(-c3cc4c(-c5nnn[nH]5)c[nH]c4cc3Cl)s2)CC1
4. CONC(=O)C(=O)c1c[nH]c2cc(Cl)c(-c3ccc(N(C)C)nc3OC)cc12
5. CCONC(=O)C(=O)c1c[nH]c2cc(Cl)c(-c3ccc(N(C)C)nc3OC)cc12

1. < 0.1
2. < 0.1
3. < 0.1
4. < 0.1
5. < 0.1

Lab note: each molecule below needs its Kp at 3 h filled in.
1. CONC(=O)c1c[nH]c2cc(Cl)c(-c3ccc(N(C)C)nc3OC)cc12
2. CCONC(=O)c1c[nH]c2cc(Cl)c(-c3ccc(N(C)C)nc3OC)cc12

1: > 1; 2: 0.1 to 1
